# Target or system: TNFα trimer (Homo sapiens)
# Sequence (P01375 77-233 limits assumed): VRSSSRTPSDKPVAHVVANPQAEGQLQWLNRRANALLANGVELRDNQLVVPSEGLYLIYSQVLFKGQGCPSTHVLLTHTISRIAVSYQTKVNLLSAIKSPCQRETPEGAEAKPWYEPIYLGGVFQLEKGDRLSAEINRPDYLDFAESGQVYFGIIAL
# Test summary: TNFα FP Competitive Binding Assay
# Details: TNFα FP competitive binding assay; class symbols A/B/C; read-out: TNF IC50
pIC50: −log10 of the molar value.
Reported pIC50 by item:

Take a look at these entries with their results.
Ask: # pIC50 lookup, item c1ccc(C2C3CC(C3)c3nc4ccc(-c5cnc(N6CCOCC6)nc5)nc4n32)cc1 (centres unmarked) [BE.1]
Reply: 5.00 to 6.00

Ask: Please give the measured pIC50 for this compound: OC1CCCN(c2ncc(-c3ccc4nc5n(c4n3)C3(CCOc4ccccc43)COC5)cn2)C1 (centres unmarked) [BB.3]
Reply: > 6.00

Ask: Quick one: pIC50 of OC1CN(c2ncc(-c3ccc4nc5n(c4n3)C3(CCOc4ccccc43)COC5)cn2)C1 (centres unmarked) [BB.4] ?
Reply: > 6.00

Ask: Fill in the blank: the reported pIC50 of O=C1NC[C@@H]2CN(c3ncc(-c4ccc5nc6n(c5n4)C4(COC6)COc5ccccc54)cn3)CCN12 (some centres unmarked) [AU.1] is ____.
Reply: > 6.00

Others:
Ask: Data request, read-out pIC50, for O=C1NCC2CN(c3ncc(-c4ccc5nc6n(c5c4)C(c4ccccc4Cl)COC6)cn3)CCN12 (centres unmarked) [V.2]
Reply: > 6.00

Ask: Name the recorded pIC50 for COc1ccccc1C1CCCc2nc3ccc(-c4cnc(N5CCC(C)(O)CC5)nc4)cn3c21 (centres unmarked) [AJ.5] .
Reply: > 6.00

Ask: Request the reported pIC50 associated with OC1CCN(c2ncc(-c3ccc4nc5n(c4c3)C(c3cccc(F)c3)COC5)cn2)CC1(F)F (centres unmarked) [X.1]
Reply: > 6.00

Ask: I am curious: what pIC50 value has been reported for CC(=O)N1CCN(c2ccc(-c3ccc4nc5n(c4c3)C(c3ccccc3)COC5)cn2)CC1 (centres unmarked) [T.13] ?
Reply: 5.00 to 6.00

Ask: Fill in the blank: the reported pIC50 of O[C@H]1CC[C@H](Oc2cc(-c3ccc4nc5n(c4n3)C3(COC5)COc4ccccc43)ccn2)CC1 (some centres unmarked) [AX.1] is ____.
Reply: > 6.00

Ask: Requested field: pIC50. Item: CS(=O)(=O)c1ncc(-c2ccc3nc4n(c3n2)C2(CCOc3ccccc32)COC4)cn1 (centres unmarked) [BA.3]
Reply: 5.00 to 6.00

Ask: Entry COc1ccccc1C1CCCCc2nc3ccc(-c4cnc(C(C)(C)O)nc4)cn3c21 (centres unmarked) [S.4] : reported pIC50 = ?
Reply: > 6.00

Ask: Can you look up the measured pIC50 of O=C(CO)N1CCN(c2ncc(-c3ccc4nc5n(c4n3)C(c3ccccc3)COC5)cn2)CC1 (centres unmarked) [AZ.7] for me?
Reply: > 6.00

Where do the numbers come from? From patent US20180179198A1.
